Tested on: MLMA (Other Blood Carcinomas)
Experiment: combination Emax (second highest fraction inhibited in the dose matrix, 72 h); higher = more inhibition; extreme values may be limits of the assay
Endpoint label: combination Emax

CC1(C)CCC(CN2CCN(c3ccc(C(=O)NS(=O)(=O)c4ccc(NCC5CCOCC5)c([N+](=O)[O-])c4)c(Oc4cnc5[nH]ccc5c4)c3)CC2)=C(c2ccc(Cl)cc2)C1 [Venetoclax] + CN(C)CCCOc1ccc(-c2ccc3ncc4c(c3c2)n(C2CCOCC2)c(=O)n4C)cn1 [AZD0156] (first compound max 1 µM, 7x7, partner max 1 µM); 0.93
COc1cccc(OCCCN)c1-c1cc(Nc2cnc(C#N)cn2)n[nH]1 [Prexasertib] + C=CCn1c(=O)c2cnc(Nc3ccc(N4CCN(C)CC4)cc3)nc2n1-c1cccc(C(C)(C)O)n1 [AZD1775] (first compound max 1 µM, partner max 1 µM); 0.963
C[C@@H](Nc1cc(F)cc(F)c1)c1cc(C(=O)N(C)C)cc2c(=O)cc(N3CCOCC3)oc12 [AZD8186] + C1CN(CCC1(C(=O)N[C@@H](CCO)C2=CC=C(C=C2)Cl)N)C3=NC=NC4=C3C=CN4 [AZD5363] (first compound max 10 µM, 7x7, partner max 10 µM); 0.623
C[C@@H]1COCCN1c1cc(C2([S@](C)(=N)=O)CC2)nc(-c2ccnc3[nH]ccc23)n1 [AZD6738] + O=C(c1cc(Cc2n[nH]c(=O)c3ccccc23)ccc1F)N1CCN(C(=O)C2CC2)CC1 [Olaparib] (first compound max 10 µM, 7x7, partner max 10 µM); 0.988
Cc1nc(-c2cn3c(n2)-c2ccc(-c4cnn(C(C)(C)C(N)=O)c4)cc2OCC3)n(C(C)C)n1 [Taselisib] + O=C(Nc1ccc2[nH]nc(-c3ccncc3)c2c1)[C@@H]1CCN(CC(=O)N2CCN(c3ccc(-c4ncccn4)cc3)CC2)C1 [SCH772984] (first compound max 10 µM, 7x7, partner max 5 µM); 0.561
CC(=O)c1c(C)c2cnc(Nc3ccc(N4CCNCC4)cn3)nc2n(C2CCCC2)c1=O [Palbociclib] + CC1(C)CCC(CN2CCN(c3ccc(C(=O)NS(=O)(=O)c4ccc(NCC5CCOCC5)c([N+](=O)[O-])c4)c(Oc4cnc5[nH]ccc5c4)c3)CC2)=C(c2ccc(Cl)cc2)C1 [Venetoclax] (first compound max 10 µM, 7x7, partner max 1 µM); 0.683

Could you now consider this next compound?
input: Dear colleague, I am looking for the recorded combination Emax of the following compound: COc1cccc(OCCCN)c1-c1cc(Nc2cnc(C#N)cn2)n[nH]1 [Prexasertib] + C[C@@H]1COCCN1C2=NC(=NC(=C2)C3(CC3)[S@](=N)(=O)C)C4=C5C=CNC5=NC=C4 [AZD6738] (first compound max 1 µM, 7x7, partner max 10 µM)
output: 0.954

----------
Test system: HOP-62 (Lung Adenocarcinoma);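 further: after 72 h of two-drug dosing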
Test: Bliss excess, mean over the matrix (fraction); higher = more synergy
Class (by Bliss excess) -- lo: < -0.04; mid: ≥ -0.04 and < -0.01; hi: ≥ -0.01

Here's what some known entries look like.
Cc1c2c(nn1C)CSCc1cc(n(C)n1)CSc1cc(c3ccccc3c1)OCCCc1c(C(=O)O)n(C)c3c-2c(Cl)ccc13 [AZD5991] + Cc1cc2ncnn2cc1Nc1ncc2c(n1)n(C1CCOCC1)c(=O)n2C [AZD7648] (first compound max 1 µM, 7x7, partner max 10 µM); lo
CC(=O)c1c(C)c2cnc(Nc3ccc(N4CCNCC4)cn3)nc2n(C2CCCC2)c1=O [Palbociclib] + Cn1cnc2c(F)c(Nc3ccc(Br)cc3Cl)c(C(=O)NOCCO)cc21 [Selumetinib] (first compound max 10 µM, 7x7, partner max 10 µM); hi
COc1nnc2ccc(N3CCC(c4ccc(OCCN5CCN(C)C(=O)[C@H]5C)cc4)CC3)nn12 [AZD5153] + C[C@@H]1COCCN1C2=NC(=NC(=C2)C3(CC3)[S@](=N)(=O)C)C4=C5C=CNC5=NC=C4 [AZD6738] (first compound max 1 µM, 7x7, partner max 10 µM); mid
CC(=O)c1c(C)c2cnc(Nc3ccc(N4CCNCC4)cn3)nc2n(C2CCCC2)c1=O [Palbociclib] + CC1(C)CCC(CN2CCN(c3ccc(C(=O)NS(=O)(=O)c4ccc(NCC5CCOCC5)c([N+](=O)[O-])c4)c(Oc4cnc5[nH]ccc5c4)c3)CC2)=C(c2ccc(Cl)cc2)C1 [Venetoclax] (first compound max 10 µM, 7x7, partner max 1 µM); mid
NC1(C(=O)N[C@@H](CCO)c2ccc(Cl)cc2)CCN(c2ncnc3[nH]ccc23)CC1 [Capivasertib] + Cn1cnc2c(F)c(Nc3ccc(Br)cc3Cl)c(C(=O)NOCCO)cc21 [Selumetinib] (first compound max 10 µM, 7x7, partner max 10 µM); mid

input: Could you place CN(CCO)CC[C@H](CSc1ccccc1)Nc1ccc(S(=O)(=O)NC(=O)c2ccc(N3CCC([C@@H](O)c4ccccc4-c4ccc(Cl)cc4)CC3)cc2)cc1S(=O)(=O)C(F)(F)F [AZD4320] + C=CCn1c(=O)c2cnc(Nc3ccc(N4CCN(C)CC4)cc3)nc2n1-c1cccc(C(C)(C)O)n1 [AZD1775] (first compound max 1 µM, partner max 1 µM) in its proper category? Many thanks.
output: mid

input: Could you place CCc1c2c(nc3ccc(O)cc13)-c1cc3c(c(=O)n1C2)COC(=O)[C@]3(O)CC [SN-38] + O=C(c1cc(Cc2n[nH]c(=O)c3ccccc23)ccc1F)N1CCN(C(=O)C2CC2)CC1 [Olaparib] (first compound max 0.3 µM, 7x7, partner max 10 µM) in its proper category? Many thanks.
output: hi

input: Could you place Cc1cc2ncnn2cc1Nc1ncc2c(n1)n(C1CCOCC1)c(=O)n2C [AZD7648] + CCN(CCO)CCCOc1ccc2c(Nc3cc(CC(=O)Nc4cccc(F)c4)[nH]n3)ncnc2c1 [AZD2811] (first compound max 10 µM, 7x7, partner max 1 µM) in its proper category? Many thanks.
output: hi

input: Could you place COc1cccc(OCCCN)c1-c1cc(Nc2cnc(C#N)cn2)n[nH]1 [Prexasertib] + C[C@@H]1COCCN1C2=NC(=NC(=C2)C3(CC3)[S@](=N)(=O)C)C4=C5C=CNC5=NC=C4 [AZD6738] (first compound max 1 µM, 7x7, partner max 10 µM) in its proper category? Many thanks.
output: hi

input: Could you place Cc1nc(Nc2ncc(C(=O)Nc3c(C)cccc3Cl)s2)cc(N2CCN(CCO)CC2)n1 [Dasatinib] + CC(=O)Nc1cccc(-n2c(=O)n(C3CC3)c(=O)c3c(Nc4ccc(I)cc4F)n(C)c(=O)c(C)c32)c1 [Trametinib] (first compound max 2 µM, 7x7, partner max 1 µM) in its proper category? Many thanks.
output: lo

input: Could you place COc1nnc2ccc(N3CCC(c4ccc(OCCN5CCN(C)C(=O)[C@H]5C)cc4)CC3)nn12 [AZD5153] + Cn1cnc2c(F)c(Nc3ccc(Br)cc3Cl)c(C(=O)NOCCO)cc21 [Selumetinib] (first compound max 1 µM, 7x7, partner max 10 µM) in its proper category? Many thanks.
output: lo

input: Could you place Cc1c2c(nn1C)CSCc1cc(n(C)n1)CSc1cc(c3ccccc3c1)OCCCc1c(C(=O)O)n(C)c3c-2c(Cl)ccc13 [AZD5991] + C=CCn1c(=O)c2cnc(Nc3ccc(N4CCN(C)CC4)cc3)nc2n1-c1cccc(C(C)(C)O)n1 [AZD1775] (first compound max 1 µM, partner max 1 µM) in its proper category? Many thanks.
output: mid

input: Could you place Cc1cc2ncnn2cc1Nc1ncc2c(n1)n(C1CCOCC1)c(=O)n2C [AZD7648] + CN(C)CCCOc1ccc(-c2ccc3ncc4c(c3c2)n(C2CCOCC2)c(=O)n4C)cn1 [AZD0156] (first compound max 10 µM, 7x7, partner max 1 µM) in its proper category? Many thanks.
output: mid
